Target sequence: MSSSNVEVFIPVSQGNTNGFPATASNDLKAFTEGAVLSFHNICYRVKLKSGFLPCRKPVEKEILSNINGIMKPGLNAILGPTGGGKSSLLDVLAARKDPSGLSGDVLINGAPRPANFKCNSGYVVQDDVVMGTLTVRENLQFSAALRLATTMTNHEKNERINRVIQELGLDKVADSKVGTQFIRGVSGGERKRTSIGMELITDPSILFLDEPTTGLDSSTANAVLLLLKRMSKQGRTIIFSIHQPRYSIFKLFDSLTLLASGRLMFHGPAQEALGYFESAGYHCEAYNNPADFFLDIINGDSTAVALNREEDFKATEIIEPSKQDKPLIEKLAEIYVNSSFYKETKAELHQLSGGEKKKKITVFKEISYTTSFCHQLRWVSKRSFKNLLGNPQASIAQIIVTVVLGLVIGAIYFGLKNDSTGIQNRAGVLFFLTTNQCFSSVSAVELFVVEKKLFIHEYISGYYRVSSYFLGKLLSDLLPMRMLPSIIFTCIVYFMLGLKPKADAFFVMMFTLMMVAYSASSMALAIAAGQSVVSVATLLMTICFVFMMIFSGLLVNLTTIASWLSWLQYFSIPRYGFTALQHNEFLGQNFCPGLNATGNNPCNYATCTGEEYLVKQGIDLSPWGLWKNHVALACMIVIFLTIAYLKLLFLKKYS
pIC50: −log10 of the molar value.
measuredAttribute: pIC50

| sampleSmiles | testValue |
| --- | --- |
| COc1cccc(CCc2ccccc2NCc2ccc(OC)c(OC)c2)c1 | 6.30 |
| COc1cccc(CCc2ccccc2OCc2ccc(OC)c(OC)c2)c1 | 3.82 |
| COc1cccc(CCc2ccccc2NCc2cccc(OC)c2OC)c1 | 5.82 |
| COc1cccc(CCc2ccccc2OCc2cccc(OC)c2OC)c1 | 3.92 |

----------
- systemName: ATP-dependent translocase ABCB1 (Homo sapiens)
- testSummary: Inhibition of ABCB1

| sampleSmiles | IC50 (µM) |
| --- | --- |
| COc1cccc(CCc2ccccc2OCc2ccc(OC)c(OC)c2)c1 | 0.65 |
| COc1cccc(CCc2ccccc2NCc2ccc(OC)c(OC)c2)c1 | 0.18 |
| COc1cccc(CCc2ccccc2NCc2cccc(OC)c2OC)c1 | 0.085 |

----------
- systemName: ATP-dependent translocase ABCB1 (Homo sapiens, UniProt P08183)
- Sequence (P08183 whole entry): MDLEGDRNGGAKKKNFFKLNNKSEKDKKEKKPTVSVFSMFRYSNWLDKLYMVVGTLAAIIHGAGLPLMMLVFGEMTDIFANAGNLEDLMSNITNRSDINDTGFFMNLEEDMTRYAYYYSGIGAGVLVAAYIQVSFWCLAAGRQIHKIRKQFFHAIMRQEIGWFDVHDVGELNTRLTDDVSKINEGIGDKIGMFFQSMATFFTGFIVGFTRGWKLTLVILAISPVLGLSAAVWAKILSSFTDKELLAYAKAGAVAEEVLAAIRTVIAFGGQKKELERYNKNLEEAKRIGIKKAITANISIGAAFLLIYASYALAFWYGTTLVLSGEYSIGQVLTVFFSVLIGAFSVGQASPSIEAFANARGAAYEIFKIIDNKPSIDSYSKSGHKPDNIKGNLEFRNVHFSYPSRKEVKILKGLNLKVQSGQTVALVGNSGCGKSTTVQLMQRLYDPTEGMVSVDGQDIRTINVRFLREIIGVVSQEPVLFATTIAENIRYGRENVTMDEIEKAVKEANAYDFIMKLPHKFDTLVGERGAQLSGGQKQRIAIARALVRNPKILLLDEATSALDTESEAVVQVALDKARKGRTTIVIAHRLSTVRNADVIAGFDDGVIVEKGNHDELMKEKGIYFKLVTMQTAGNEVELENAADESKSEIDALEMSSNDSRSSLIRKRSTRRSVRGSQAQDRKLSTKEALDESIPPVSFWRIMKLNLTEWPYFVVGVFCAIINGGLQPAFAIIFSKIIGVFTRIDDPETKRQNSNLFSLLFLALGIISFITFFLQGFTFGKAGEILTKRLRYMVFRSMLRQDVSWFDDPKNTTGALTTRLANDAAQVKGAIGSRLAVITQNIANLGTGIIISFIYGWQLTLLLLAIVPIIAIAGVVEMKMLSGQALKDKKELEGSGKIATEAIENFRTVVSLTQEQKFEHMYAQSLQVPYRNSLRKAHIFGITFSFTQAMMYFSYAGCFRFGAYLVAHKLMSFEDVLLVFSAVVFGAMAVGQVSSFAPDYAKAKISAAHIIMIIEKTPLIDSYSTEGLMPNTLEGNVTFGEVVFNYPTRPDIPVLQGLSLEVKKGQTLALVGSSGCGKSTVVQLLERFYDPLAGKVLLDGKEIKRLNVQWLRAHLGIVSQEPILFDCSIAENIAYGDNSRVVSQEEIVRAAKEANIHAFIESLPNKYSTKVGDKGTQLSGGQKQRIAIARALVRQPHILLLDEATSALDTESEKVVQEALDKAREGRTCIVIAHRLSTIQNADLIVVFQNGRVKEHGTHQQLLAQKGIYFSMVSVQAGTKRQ
- testSummary: Inhibition of ABCB1-mediated [3H]vinblastine transportation in human Caco-2 cells
- Format: cell-based
pIC50: −log10 of the molar value.
Recorded pIC50 values for a group of compounds are listed next.

| sampleSmiles | systemName | pIC50 |
| --- | --- | --- |
| COc1cccc(CCc2ccccc2OCCCN2CCN(c3ccccc3OC)CC2)c1 | ATP-dependent translocase ABCB1 (Homo sapiens, UniProt P08183) | 4.85 |
| COc1cccc(CCc2ccccc2OCCCN2CCN(c3cccc(Cl)c3)CC2)c1 | ATP-dependent translocase ABCB1 (Homo sapiens, UniProt P08183) | 5.60 |
| COc1cccc(CCc2ccccc2OCCCCCN2CCc3ccccc3C2)c1 | ATP-dependent translocase ABCB1 (Homo sapiens, UniProt P08183) | 5.50 |
| COc1cccc(CCc2ccccc2OCCCCN2CCN(c3ccccc3OC)CC2)c1 | ATP-dependent translocase ABCB1 (Homo sapiens, UniProt P08183) | 5.24 |
| COc1cccc(CCc2ccccc2OCCCCN2CCc3cc(OC)c(OC)cc3C2)c1 | ATP-dependent translocase ABCB1 (Homo sapiens, UniProt P08183) | 6.72 |
| COc1cccc(CCc2ccccc2OCCN2CCc3ccccc3C2)c1 | ATP-dependent translocase ABCB1 (Homo sapiens, UniProt P08183) | 4.92 |
| COc1cccc(CCc2ccccc2OCCCCN2CCN(c3cccc(C(F)(F)F)c3)CC2)c1 | ATP-dependent translocase ABCB1 (Homo sapiens, UniProt P08183) | 6.12 |
| COc1cccc(CCc2ccccc2OCCCCCN2CCN(c3ncccn3)CC2)c1 | ATP-dependent translocase ABCB1 (Homo sapiens, UniProt P08183) | 5.76 |
| COc1cccc(CCc2ccccc2OCCN2CCN(c3ccccc3OC)CC2)c1 | ATP-dependent translocase ABCB1 (Homo sapiens, UniProt P08183) | 4.60 |
| COc1cccc(CCc2ccccc2OCCCCN2CCN(c3ncccn3)CC2)c1 | ATP-dependent translocase ABCB1 (Homo sapiens, UniProt P08183) | 6.70 |

----------
- systemName: UniProt P14416
- Sequence (P14416 whole entry): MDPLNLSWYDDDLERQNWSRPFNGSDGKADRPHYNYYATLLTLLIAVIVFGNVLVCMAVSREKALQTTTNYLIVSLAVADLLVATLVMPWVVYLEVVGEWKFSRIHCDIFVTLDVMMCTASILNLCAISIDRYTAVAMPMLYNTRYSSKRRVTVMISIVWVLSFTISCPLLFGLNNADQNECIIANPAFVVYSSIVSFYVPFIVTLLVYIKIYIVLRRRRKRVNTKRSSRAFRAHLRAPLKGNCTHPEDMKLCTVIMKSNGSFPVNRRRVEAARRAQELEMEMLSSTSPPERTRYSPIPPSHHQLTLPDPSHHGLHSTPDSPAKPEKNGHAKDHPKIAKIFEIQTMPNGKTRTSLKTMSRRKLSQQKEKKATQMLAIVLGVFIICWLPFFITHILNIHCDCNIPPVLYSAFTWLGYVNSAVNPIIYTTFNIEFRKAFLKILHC
- testSummary: Displacement of [3H]spiroperidol from human cloned dopaminergic D2 receptor expressed in rat C6 cells at 10 uM
- Type: cell-based

| sampleSmiles | inhibition, % |
| --- | --- |
| COc1cccc(CCc2ccccc2OCCN2CCN(c3ccc(F)cc3)CC2)c1 | 38 |
| COc1cccc(CCc2ccccc2OCCCCCN2CCN(c3ccccc3OC)CC2)c1 | 35 |
| COc1cccc(CCc2ccccc2OCCCCCN2CCc3cc(OC)c(OC)cc3C2)c1 | 18 |
| COc1cccc(CCc2ccccc2OCCCCCN2CCN(c3ncccn3)CC2)c1 | 24 |
| COc1cccc(CCc2ccccc2OCCCCN2CCN(c3cccc(C(F)(F)F)c3)CC2)c1 | 27 |
| COc1cccc(CCc2ccccc2OCCCCN2CCN(C)CC2)c1 | 14 |
| COc1cccc(CCc2ccccc2OCCN2CCc3ccccc3C2)c1 | 35 |

----------
Recorded Ratio values for a group of compounds are listed next.
- Tested on: Caco-2
- testSummary: Ratio of apparent permeability from basolateral to apical over apical to basolateral side of human Caco-2 cells after 120 mins by UV-visible spectroscopy
- experimentalContext: caco-2, 2 h
measuredAttribute: Ratio

| sampleSmiles | systemName | testValue |
| --- | --- | --- |
| COc1cccc(CCc2ccccc2OCCCN2CCc3cc(OC)c(OC)cc3C2)c1 | Caco-2 | 4.3 |
| COc1cccc(CCc2ccccc2OCCCN2CCc3ccccc3C2)c1 | Caco-2 | 6.3 |
| COc1cccc(CCc2ccccc2OCCCCCN2CCN(c3ccccc3OC)CC2)c1 | Caco-2 | 5.2 |
| COc1cccc(CCc2ccccc2OCCCN2CCN(c3cccc(Cl)c3)CC2)c1 | Caco-2 | 6.8 |
| COc1cccc(CCc2ccccc2OCCCCN2CCN(c3cccc(Cl)c3)CC2)c1 | Caco-2 | 5.1 |
| COc1cccc(CCc2ccccc2OCCCCN2CCc3cc(OC)c(OC)cc3C2)c1 | Caco-2 | 5.8 |
| COc1cccc(CCc2ccccc2OCCCN2CCN(c3ncccn3)CC2)c1 | Caco-2 | 131 |
| COc1cccc(CCc2ccccc2OCCCN2CCN(c3cccc(C(F)(F)F)c3)CC2)c1 | Caco-2 | 4.4 |
| COc1cccc(CCc2ccccc2OCCN2CCN(c3ccc(F)cc3)CC2)c1 | Caco-2 | 2.2 |
| COc1cccc(CCc2ccccc2OCCN2CCN(C)CC2)c1 | Caco-2 | 6.8 |
| COc1cccc(CCc2ccccc2OCCN2CCN(c3cccc(C(F)(F)F)c3)CC2)c1 | Caco-2 | 2.6 |
| COc1cccc(CCc2ccccc2OCCCN2CCN(C)CC2)c1 | Caco-2 | 4.7 |
| COc1cccc(CCc2ccccc2OCCCCCN2CCN(C)CC2)c1 | Caco-2 | 2.5 |
| COc1cccc(CCc2ccccc2OCCCCN2CCN(c3ncccn3)CC2)c1 | Caco-2 | 8.2 |
| COc1cccc(CCc2ccccc2OCCCN2CCN(c3ccccc3OC)CC2)c1 | Caco-2 | 8.1 |
| COc1cccc(CCc2ccccc2OCCN2CCN(c3ccccc3OC)CC2)c1 | Caco-2 | 6.8 |
| COc1cccc(CCc2ccccc2OCCN2CCc3cc(OC)c(OC)cc3C2)c1 | Caco-2 | 6.4 |
| COc1cccc(CCc2ccccc2OCCCCN2CCN(c3ccccc3OC)CC2)c1 | Caco-2 | 3.9 |
| COc1cccc(CCc2ccccc2OCCN2CCc3ccccc3C2)c1 | Caco-2 | 7.2 |
| COc1cccc(CCc2ccccc2OCCCCCN2CCc3ccccc3C2)c1 | Caco-2 | 7.3 |
| COc1cccc(CCc2ccccc2OCCN2CCN(c3cccc(Cl)c3)CC2)c1 | Caco-2 | 3.6 |
| COc1cccc(CCc2ccccc2OCCCCN2CCN(c3cccc(C(F)(F)F)c3)CC2)c1 | Caco-2 | 4.4 |
| COc1cccc(CCc2ccccc2OCCCCN2CCN(C)CC2)c1 | Caco-2 | 6.3 |
| COc1cccc(CCc2ccccc2OCCCCCN2CCc3cc(OC)c(OC)cc3C2)c1 | Caco-2 | 4.9 |
| COc1cccc(CCc2ccccc2OCCCCCN2CCN(c3ncccn3)CC2)c1 | Caco-2 | 7.1 |

----------
- systemName: ABCG2 (Homo sapiens)
- testSummary: Inhibition of ABCG2 in human Caco-2 cells assessed as [3H]mithoxatrone accumulation at 100 uM
- Format: cell-based
- experimentalContext: probe [3H]mithoxatrone
Recorded inhibition at 100 µM values for a group of compounds are listed next.
measuredAttribute: inhibition at 100 µM (%)

| sampleSmiles | unitAbbreviation | testValue |
| --- | --- | --- |
| COc1cccc(CCc2ccccc2OCCCCN2CCN(c3ncccn3)CC2)c1 | % | 16 |
| COc1cccc(CCc2ccccc2OCCCCN2CCN(c3cccc(C(F)(F)F)c3)CC2)c1 | % | 24 |
